Each recorded value in this set is attributed to patent US11555212B2.

Percent reduction in concentration, SULT1A1 + CysDNCQ values by entry
- ASSAYED_SYSTEM: SULT1A1 from rat (Rattus norvegicus) (Rattus norvegicus)
- Construct: 1, 3, 4, 5, and 6 were cloned amplified from liver tissue cDNA; expressed in transfected cells
- Sequence (P17988 whole entry): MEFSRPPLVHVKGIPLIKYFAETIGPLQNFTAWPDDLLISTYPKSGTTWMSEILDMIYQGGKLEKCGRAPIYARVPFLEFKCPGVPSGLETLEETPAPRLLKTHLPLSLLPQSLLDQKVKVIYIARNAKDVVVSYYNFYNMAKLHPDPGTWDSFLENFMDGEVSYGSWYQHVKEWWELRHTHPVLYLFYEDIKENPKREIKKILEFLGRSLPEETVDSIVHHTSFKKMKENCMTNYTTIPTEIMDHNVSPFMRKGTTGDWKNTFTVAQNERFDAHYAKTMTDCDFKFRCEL
- METHOD_NOTES: Percent reduction in concentration of phenolic compounds by E. coli expressing a sulfotransferase, compared to control strain
- Type: cell-based
- APPLIED_CONDITIONS: E. coli BL21(DE3)pLysS expressing SULT1A1 rat + CysDNCQ, compared to the control strain; M9, 1 mM IPTG, single substrate at start concentration of Table 14; overnight 37° C.
ENDPOINT_NAME: Percent reduction in concentration, SULT1A1 + CysDNCQ (%)

{"COMPOUND": "O=C(O)C(=O)Cc1ccc(O)cc1 [4-Hydroxyphenylpyruvic acid, 4-hydroxyphenylpyruvic acid]", "MEASURED_NUMBER": 64}
{"COMPOUND": "O=c1c(O)c(-c2ccc(O)c(O)c2)oc2cc(O)ccc12 [fisetin]", "MEASURED_NUMBER": 100}
{"COMPOUND": "COc1cc(C(=O)O)ccc1O [Vanillic acid, vanillic acid]", "MEASURED_NUMBER": 39}
{"COMPOUND": "O=c1c(O)c(-c2ccc(O)c(O)c2)oc2cc(O)cc(O)c12 [Quercetin]", "MEASURED_NUMBER": 81}
{"COMPOUND": "O=C(O)c1ccc(O)cc1 [4-hydroxybenzoic acid]", "MEASURED_NUMBER": 6}
